All values here come from patent US8575183B2.

# TESTED TARGET: PI3k δ (Homo sapiens, UniProt O00329)
# Construct: Full length p110 subunits of PI3k α, β and δ; polyHis (N); made in house; host or cells: Sf9 insect cells (baculovirus)
# Sequence (O00329 whole entry): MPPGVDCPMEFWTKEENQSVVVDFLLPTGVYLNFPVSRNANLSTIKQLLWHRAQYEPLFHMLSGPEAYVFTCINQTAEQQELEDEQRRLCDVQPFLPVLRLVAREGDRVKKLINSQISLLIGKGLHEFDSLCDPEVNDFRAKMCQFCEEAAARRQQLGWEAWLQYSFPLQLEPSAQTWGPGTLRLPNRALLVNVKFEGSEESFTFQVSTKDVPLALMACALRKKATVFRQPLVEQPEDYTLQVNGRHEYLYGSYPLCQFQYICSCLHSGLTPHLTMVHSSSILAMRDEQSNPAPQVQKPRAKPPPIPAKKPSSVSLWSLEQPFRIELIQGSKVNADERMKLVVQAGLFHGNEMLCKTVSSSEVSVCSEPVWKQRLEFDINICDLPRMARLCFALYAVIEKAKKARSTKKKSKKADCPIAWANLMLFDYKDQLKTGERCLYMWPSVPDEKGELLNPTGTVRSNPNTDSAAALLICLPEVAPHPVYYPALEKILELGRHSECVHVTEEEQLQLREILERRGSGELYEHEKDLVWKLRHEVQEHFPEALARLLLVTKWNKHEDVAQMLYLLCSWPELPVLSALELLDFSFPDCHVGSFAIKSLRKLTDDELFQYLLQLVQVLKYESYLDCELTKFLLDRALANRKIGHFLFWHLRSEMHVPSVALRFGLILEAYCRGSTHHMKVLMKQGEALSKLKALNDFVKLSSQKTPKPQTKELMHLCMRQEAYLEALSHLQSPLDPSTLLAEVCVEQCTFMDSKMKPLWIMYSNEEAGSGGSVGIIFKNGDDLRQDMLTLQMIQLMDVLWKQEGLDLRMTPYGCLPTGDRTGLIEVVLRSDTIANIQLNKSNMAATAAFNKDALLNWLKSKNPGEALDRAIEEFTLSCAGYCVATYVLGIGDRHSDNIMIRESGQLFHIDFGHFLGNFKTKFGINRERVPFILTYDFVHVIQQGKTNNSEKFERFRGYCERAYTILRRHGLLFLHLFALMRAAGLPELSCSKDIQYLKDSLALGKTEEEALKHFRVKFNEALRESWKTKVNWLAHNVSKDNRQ
# Sequence (P27986 whole entry partner): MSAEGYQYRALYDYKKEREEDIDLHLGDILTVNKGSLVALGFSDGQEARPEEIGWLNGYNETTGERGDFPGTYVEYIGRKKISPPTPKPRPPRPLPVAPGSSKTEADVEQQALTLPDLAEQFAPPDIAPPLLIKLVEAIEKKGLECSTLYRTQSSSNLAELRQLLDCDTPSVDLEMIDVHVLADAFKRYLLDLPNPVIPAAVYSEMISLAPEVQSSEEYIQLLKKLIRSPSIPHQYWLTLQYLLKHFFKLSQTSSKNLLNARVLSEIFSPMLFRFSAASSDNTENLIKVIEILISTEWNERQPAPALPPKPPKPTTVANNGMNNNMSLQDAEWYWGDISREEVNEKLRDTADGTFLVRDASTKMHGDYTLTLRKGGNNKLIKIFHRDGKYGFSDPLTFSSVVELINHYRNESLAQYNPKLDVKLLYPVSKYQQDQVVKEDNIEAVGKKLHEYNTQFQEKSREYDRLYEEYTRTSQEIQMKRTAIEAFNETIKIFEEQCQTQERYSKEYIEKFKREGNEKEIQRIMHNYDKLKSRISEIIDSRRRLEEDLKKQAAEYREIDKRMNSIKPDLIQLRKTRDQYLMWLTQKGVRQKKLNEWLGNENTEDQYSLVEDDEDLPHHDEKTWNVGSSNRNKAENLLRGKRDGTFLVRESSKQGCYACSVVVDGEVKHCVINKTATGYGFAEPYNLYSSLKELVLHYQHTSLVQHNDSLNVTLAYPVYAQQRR
# TEST DETAILS: biochemical
# Assay type: biochemical
# EXPERIMENTAL PARAMETERS: read-out: PI3k δ Ki
pKi: −log10 of the molar value.
Assign TRUE to entries whose pKi meets or exceeds 7; assign FALSE to the rest.

Exam item: decide whether the reported pKi for C[C@@H](Nc1ncnc(N)c1C#N)c1nc2ccc(F)cc2n1-c1cncc(NS(C)(=O)=O)c1 is at least 7.
FALSE

Let us now turn to CC[C@H](Nc1ncnc(N)c1C#N)c1nc2cccc(S(C)(=O)=O)c2n1Cc1ccc(F)cc1
TRUE

Consider next the molecule C[C@@H](Nc1ncnc(N)c1C#N)c1nc2c(F)cc(F)cc2n1-c1cc(F)cc(F)c1 in the same way.
FALSE

Now give it for C[C@H](Nc1ncnc(N)c1C#N)c1nc2ncccc2n1-c1ccccn1 too.
FALSE

Do the same for C[C@@H](Nc1ncnc(N)c1C#N)c1nc2ccc(F)cc2n1-c1cccc(C#N)c1 please
FALSE
